Hey, just so you know, these numbers are from paper PMC4336329.

Property: hERG current change (%, negative = inhibition) at 10uM; scope: individual compounds
# targetOrTestSystem: human ether-à-go-go-related gene (hERG) potassium channel (human, UniProt Q12809)
# Sequence (Q12809 whole entry, looked up): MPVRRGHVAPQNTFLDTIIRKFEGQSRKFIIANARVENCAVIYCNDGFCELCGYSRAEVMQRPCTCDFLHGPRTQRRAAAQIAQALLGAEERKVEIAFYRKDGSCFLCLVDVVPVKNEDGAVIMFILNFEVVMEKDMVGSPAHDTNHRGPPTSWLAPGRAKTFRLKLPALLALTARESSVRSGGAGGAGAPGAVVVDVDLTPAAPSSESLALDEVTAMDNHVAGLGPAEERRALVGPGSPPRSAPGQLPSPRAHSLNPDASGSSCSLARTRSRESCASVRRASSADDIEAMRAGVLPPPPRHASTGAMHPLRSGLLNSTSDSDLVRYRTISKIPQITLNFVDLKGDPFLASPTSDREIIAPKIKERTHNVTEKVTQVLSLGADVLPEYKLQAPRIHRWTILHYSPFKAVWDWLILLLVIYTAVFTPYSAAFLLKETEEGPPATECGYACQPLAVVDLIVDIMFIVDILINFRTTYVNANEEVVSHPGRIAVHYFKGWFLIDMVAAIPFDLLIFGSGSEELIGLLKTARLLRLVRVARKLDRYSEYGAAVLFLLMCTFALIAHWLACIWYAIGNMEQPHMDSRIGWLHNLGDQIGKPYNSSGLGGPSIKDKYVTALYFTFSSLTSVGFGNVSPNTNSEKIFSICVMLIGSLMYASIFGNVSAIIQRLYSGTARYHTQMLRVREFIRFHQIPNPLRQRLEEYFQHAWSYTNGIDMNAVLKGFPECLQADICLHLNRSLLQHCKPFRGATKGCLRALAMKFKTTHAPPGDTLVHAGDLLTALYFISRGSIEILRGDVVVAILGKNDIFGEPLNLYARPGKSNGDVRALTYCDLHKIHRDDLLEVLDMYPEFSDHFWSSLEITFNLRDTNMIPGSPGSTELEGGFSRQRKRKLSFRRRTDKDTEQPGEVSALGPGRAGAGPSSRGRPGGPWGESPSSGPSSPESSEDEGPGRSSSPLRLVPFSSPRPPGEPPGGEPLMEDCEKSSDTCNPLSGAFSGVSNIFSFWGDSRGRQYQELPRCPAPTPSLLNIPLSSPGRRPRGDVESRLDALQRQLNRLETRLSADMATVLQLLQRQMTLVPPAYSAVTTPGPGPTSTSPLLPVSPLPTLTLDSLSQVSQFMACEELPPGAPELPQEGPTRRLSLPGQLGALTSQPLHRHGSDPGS
# assayText: primary screen, population patch clamp on CHO cells stably expressing hERG; higher = less effect of the substance
Hit rate of the full screen: of about 310,000 compounds, about 14,000 (4.5%) showed an effect of 50% or more. The effect is printed as a negative number. For the sample, strong results were picked, then their nearest neighbours and some compounds at random.
Provide a numeric answer, followed by its unit.

>  <compound>
CC(C)(C)NC(=O)C(c1cccs1)N(C(=O)c1csnn1)c1cccc(F)c1 (stereo not drawn)

>  <targetOrTestSystem>
human ether-à-go-go-related gene (hERG) potassium channel (human, UniProt Q12809)

>  <reportedValue>
-7.68%

$$$$
>  <compound>
COc1ccc(NC(=S)NCCc2c[nH]c3ccccc23)cc1

>  <targetOrTestSystem>
human ether-à-go-go-related gene (hERG) potassium channel (human, UniProt Q12809)

>  <reportedValue>
-7.49%

$$$$
>  <compound>
CCOc1ccccc1OCCNC1CCCC1

>  <targetOrTestSystem>
human ether-à-go-go-related gene (hERG) potassium channel (human, UniProt Q12809)

>  <reportedValue>
8.26%

$$$$
>  <compound>
COc1ccc(CNC(=O)C(=O)NCC2OCCN2S(=O)(=O)c2cccs2)cc1 (stereo not drawn)

>  <targetOrTestSystem>
human ether-à-go-go-related gene (hERG) potassium channel (human, UniProt Q12809)

>  <reportedValue>
-4.34%

$$$$
>  <compound>
Cc1cc(NC(=O)c2cc3n(n2)C(C(F)(F)F)CC(c2ccco2)N3)no1 (stereo not drawn)

>  <targetOrTestSystem>
human ether-à-go-go-related gene (hERG) potassium channel (human, UniProt Q12809)

>  <reportedValue>
4.63%

$$$$

Query :: # get_value(readout= hERG current change (%, negative = inhibition) at 10uM, system= human ether-à-go-go-related gene (hERG) potassium channel (human, UniProt Q12809)) for COc1ccc(OC)c(NC(=O)C2C3CC4OC(=O)C2C4C3)c1 (stereo not drawn)
Result :: 11.2%

###

# targetOrTestSystem: human ether-à-go-go-related gene (hERG) potassium channel (human)
# assayText: primary screen, population patch clamp on CHO cells stably expressing hERG; higher = less effect of the substance
Out of some 310,000 compounds screened, about 14,000 (4.5%) showed an effect of 50% or more. Effects have a minus sign here. Only a selection was taken, and strong results are over-represented in it overall.
assayMetric: hERG current change (%, negative = inhibition) at 10uM (%)
Just the number in %, nothing appended.

The following molecules have reported results that may help.
>  <molecule>
CN1CCN(CC(O)COCCOc2ccc(Br)cc2)CC1.Cl (stereo not drawn)

>  <reportedValue>
10.4

$$$$
>  <molecule>
Cc1nc(NC(=O)CSc2nnc3ccccn23)c(Cl)cc1Cl

>  <reportedValue>
-3.58

$$$$
>  <molecule>
CC1CC(C)CN(CC(O)COCCOc2ccc(Br)cc2)C1.Cl (stereo not drawn)

>  <reportedValue>
-71.6

$$$$
>  <molecule>
CC1(C)CC(O)CC(C)(C)N1CC(O)COCCOc1ccc(Br)cc1 (stereo not drawn)

>  <reportedValue>
-42.4

$$$$
>  <molecule>
Cc1ccc(S(=O)(=O)N2CCN(CCNC(=O)C(=O)Nc3ccc(F)cc3)CC2)cc1

>  <reportedValue>
2.09

$$$$

Query :: Consider the molecule shown here: O=C(C1CC1)N1CCCN(C(=O)C2CC2)CC1 What is its recorded hERG current change (%, negative = inhibition) at 10uM?
Result :: 16.3

###

# targetOrTestSystem: human ether-à-go-go-related gene (hERG) potassium channel (human, UniProt Q12809)
# assayText: primary screen, population patch clamp on CHO cells stably expressing hERG; higher = less effect of the substance
Hit rate of the full screen: of about 310,000 compounds, about 14,000 (4.5%) showed an effect of 50% or more. The effect is printed as a negative number. Shown is part of a subset that was picked to be rich in strong results.
Each entry gets not met if its hERG current change (%, negative = inhibition) at 10uM stays under -20%, and met if its hERG current change (%, negative = inhibition) at 10uM is -20% or above.

>  <compound>
O=C(Cn1cccc1C(=O)c1ccccc1)NCCN1CCOCC1

>  <qualitativeLabel>
met

$$$$
>  <compound>
CCOC(=O)N1CCC(N2C(=O)c3ccccc3C2Nc2ccccc2C)CC1 (centres unmarked)

>  <qualitativeLabel>
not met

$$$$
>  <compound>
CCN1CCN(C(C(=O)NC2CCCC2)c2cc3c(cc2[N+](=O)[O-])OCO3)CC1 (centres unmarked)

>  <qualitativeLabel>
met

$$$$
>  <compound>
Cc1cccc(N2CCN(C(=O)Cn3cccc3C(=O)c3ccccc3)CC2)c1C

>  <qualitativeLabel>
met

$$$$

Query :: Is hERG current change (%, negative = inhibition) at 10uM for CCc1c(C)sc(NC(=O)Cc2ccccc2OC)c1C(=O)N1CCOCC1 at or above -20%?
Result :: met

###

# targetOrTestSystem: human ether-à-go-go-related gene (hERG) potassium channel (human, UniProt Q12809)
# assayText: primary screen, population patch clamp on CHO cells stably expressing hERG; higher = less effect of the substance
Screen size: about 310,000 compounds; about 14,000 (4.5%) showed an effect of 50% or more. Effects have a minus sign here. For the sample, strong results were picked, then their nearest neighbours and some compounds at random.
assayMetric: hERG current change (%, negative = inhibition) at 10uM (%)
Just the number in %, nothing appended.

>  <molecule>
COc1ccccc1C(=O)C1CCCN(C(=O)C2CCCC2)C1 (centres unmarked)

>  <targetOrTestSystem>
human ether-à-go-go-related gene (hERG) potassium channel (human, UniProt Q12809)

>  <reportedValue>
-6.06

$$$$
>  <molecule>
COc1ccc(N2CCN(CC(=O)Nc3cc(C)on3)CC2)cc1.O=C(O)C(=O)O

>  <targetOrTestSystem>
human ether-à-go-go-related gene (hERG) potassium channel (human, UniProt Q12809);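 also: peak tail current of the secondary pulse compared with the same well before compound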

>  <reportedValue>
0.616

$$$$
>  <molecule>
O=C(/C=C/c1cccc([N+](=O)[O-])c1)N1CCN(c2ccc(F)cc2)CC1

>  <targetOrTestSystem>
human ether-à-go-go-related gene (hERG) potassium channel (human, UniProt Q12809);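 also: peak tail current of the secondary pulse compared with the same well before compound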

>  <reportedValue>
-56.7

$$$$
>  <molecule>
COc1ccc(F)cc1C(=O)C1CCCN(C(=O)C2=C(C)OCCO2)C1 (centres unmarked)

>  <targetOrTestSystem>
human ether-à-go-go-related gene (hERG) potassium channel (human, UniProt Q12809);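 also: peak tail current of the secondary pulse compared with the same well before compound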

>  <reportedValue>
1.15

$$$$
>  <molecule>
COc1ccc(-c2nnc(NC(=O)c3ccc(S(=O)(=O)N(C)CC4CCCO4)cc3)o2)c(OC)c1 (centres unmarked)

>  <targetOrTestSystem>
human ether-à-go-go-related gene (hERG) potassium channel (human, UniProt Q12809);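 also: peak tail current of the secondary pulse compared with the same well before compound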

>  <reportedValue>
10.3

$$$$

Query :: Consider the molecule shown here: O=C(/C=C/c1cccc([N+](=O)[O-])c1)N1CCN(c2ccccc2F)CC1 What is its recorded hERG current change (%, negative = inhibition) at 10uM?
Result :: -38.9

Query :: Another molecule to check: CCN(CC)CC(=O)N1CCCC(C(=O)c2ccccc2OC)C1 (centres unmarked)
Result :: -10.3

Query :: Another molecule to check: CC(C)NCCOCCSc1ccc(Cl)cc1.O=C(O)C(=O)O
Result :: -30.2

Query :: Another molecule to check: COc1ccccc1C(=O)C1CCCN(C(=O)c2cc(CC(C)C)nc(C)n2)C1 (centres unmarked)
Result :: -60.5

Query :: Another molecule to check: Clc1ccc(SCCCCN2CCOCC2)cc1.O=C(O)C(=O)O
Result :: -22.5

Query :: Another molecule to check: O=C(CSc1nnc(NC(=O)Cc2ccc(F)cc2)s1)NCc1ccco1
Result :: 14.3

Query :: Another molecule to check: C#CCOCCOCCOCCNc1nc(N2CCN(C(=O)[C@H]([C@@H](C)CC)n3cc([C@@H](N)Cc4ccc(O)cc4)nn3)CC2)nc(N2CCN(C(=O)[C@H]([C@@H](C)CC)n3cc([C@@H](N)CC(C)C)nn3)CC2)n1.Cl
Result :: 0.378

Query :: Another molecule to check: O=C(CNS(=O)(=O)c1ccc(Br)s1)N1CCCC1
Result :: 22

Query :: Another molecule to check: COc1ccccc1N(C(=O)c1ccco1)C(C(=O)NC1CCCC1)c1cccnc1 (centres unmarked)
Result :: -0.441

Query :: Another molecule to check: Clc1ccc(SCCOCCN2CCOCC2)cc1.O=C(O)C(=O)O
Result :: 1.54

Query :: Another molecule to check: O=C(/C=C/c1cccc([N+](=O)[O-])c1)N1CCOCC1
Result :: -3.86

Query :: Another molecule to check: CCCCCCNC(=O)N[C@H](Cc1ccc(O)cc1)C(=O)NCCC[C@H]1CN2C(=NC[C@H]2CCC)N1CC1CCC1
Result :: 9.27

Query :: Another molecule to check: Cc1cc(C(=O)N2CCCC(C(=O)c3cccc4ccccc34)C2)nc(C)n1 (centres unmarked)
Result :: -2.09

Query :: Another molecule to check: Cc1cc(C)cc(-n2nnc(C(=O)NCc3ccco3)c2N)c1
Result :: -29.8

Query :: Another molecule to check: COC(=O)C1=C(C)N(c2cccc(C(C)=O)c2)C(=O)C1
Result :: 7.45
